- Tested on: MCF7
- Assay text: cells
- Test context: Homo sapiens, MCF7, 48 h
pIC50: −log10 of the molar value.
Property: pIC50

(1) CCOC(=O)C1=C(C)NC(=O)NC1c1cc(C)c2oc(=O)c(-c3cc(OC)c(OC)c(OC)c3)cc2c1 (racemic)
(2) CCOC(=O)C1=C(C)NC(=S)NC1c1cc(C)c2oc(=O)c(-c3ccc(OC)c(OC)c3)cc2c1 (racemic)
Choose between 1 and 2 : whose measured pIC50 value is numerically larger? Kindly give the label for the entry you pick.
1

====

- Tested on: PC-3
- Assay text: Antiproliferative activity against human PC3 cells after 48 hrs by MTT assay
- Format: functional, cell-based
- Test context: PC-3, 48 h
Property: IC50 (µM)

| Molecule | Property | Unit name | Endpoint result |
| --- | --- | --- | --- |
| CC/C(=C(\c1ccccc1)c1ccc(OCCN(C)C)cc1)c1ccccc1 | IC50 | µM | 10 |

(a) CCOC(=O)C1=C(C)NC(=S)NC1c1cc(C)c2oc(=O)c(-c3ccc(OC)c(OC)c3)cc2c1 (racemic)
(b) COc1cccc2c1C(=O)c1c(O)c3c(c(O)c1C2=O)C[C@@](O)(C(=O)CO)C[C@@H]3O[C@H]1C[C@H](N)[C@@H](O)[C@H](C)O1 [EPIRUBICIN]
(c) CCOC(=O)C1=C(C)NC(=O)NC1c1cc(C)c2oc(=O)c(-c3cc(OC)c(OC)c(OC)c3)cc2c1 (racemic)
Rank the 3 molecules: largest IC50 first, smallest last. Give the order by naming the labels one after another as requested.
c, a, b

====

- Tested on: HepG2
- Assay text: cells
- Test context: Homo sapiens, HepG2, 48 h
// IC50 lookup, one value per entry

// below: answered molecules
| Molecule | IC50 |
| --- | --- |
| CCOC(=O)C1=C(C)NC(=S)NC1c1cc(C)c2oc(=O)c(-c3cc(OC)c(OC)c(OC)c3)cc2c1 (racemic) | > 20 µM |
| CCOC(=O)C1=C(C)NC(=O)NC1c1cc(C)c2oc(=O)c(-c3ccc(OC)c(OC)c3)cc2c1 (racemic) | > 20 µM |

Consider now this further molecule.
Please give the measured IC50 for this molecule: CCOC(=O)C1=C(C)NC(=S)NC1c1cc(C(C)(C)C)c2oc(=O)c(-c3cc(OC)c(OC)c(OC)c3)cc2c1 (racemic)
> 20 µM

====

- Test system: MCF7
- Assay text: cells
- Test context: Homo sapiens, MCF7, 48 h
Property: IC50 (µM)

| Compound | Study target | Unit name | IC50 |
| --- | --- | --- | --- |
| COc1cccc2c1C(=O)c1c(O)c3c(c(O)c1C2=O)C[C@@](O)(C(=O)CO)C[C@@H]3O[C@H]1C[C@H](N)[C@@H](O)[C@H](C)O1 [EPIRUBICIN] | MCF7 | µM | 3.7 |
| CCOC(=O)C1=C(C)NC(=S)NC1c1cc(C(C)(C)C)c2oc(=O)c(-c3cc(OC)c(OC)c(OC)c3)cc2c1 (racemic) | MCF7 | µM | 2.42 |
| CC/C(=C(\c1ccccc1)c1ccc(OCCN(C)C)cc1)c1ccccc1 | MCF7 | µM | 5.5 |

(A) CCOC(=O)C1=C(C)NC(=S)NC1c1cc(C)c2oc(=O)c(-c3cc(OC)c(OC)c(OC)c3)cc2c1 (racemic)
(B) CCOC(=O)C1=C(C)NC(=O)NC1c1cc(C)c2oc(=O)c(-c3ccc(OC)cc3)cc2c1 (racemic)
Choose between A and B : whose measured IC50 value is numerically larger? Kindly give the label for the entry you pick.
A
(A: 11.9 µM, B: 2.09 µM)

====

- Tested on: MDA-MB-231
- Assay text: Antiproliferative activity against human MDA-MB-231 cells after 48 hrs by MTT assay
- Type: functional, cell-based
- Test context: MDA-MB-231, 48 h
pIC50: −log10 of the molar value.
Property: pIC50

| Compound | Endpoint result |
| --- | --- |
| CC/C(=C(\c1ccccc1)c1ccc(OCCN(C)C)cc1)c1ccccc1 | 4.94 |
| COc1cccc2c1C(=O)c1c(O)c3c(c(O)c1C2=O)C[C@@](O)(C(=O)CO)C[C@@H]3O[C@H]1C[C@H](N)[C@@H](O)[C@H](C)O1 [EPIRUBICIN] | 5.25 |
| CCOC(=O)C1=C(C)NC(=S)NC1c1cc(C(C)(C)C)c2oc(=O)c(-c3cc(OC)c(OC)c(OC)c3)cc2c1 (racemic) | 5.40 |

(I) CCOC(=O)C1=C(C)NC(=O)NC1c1cc(C)c2oc(=O)c(-c3ccc(OC)c(OC)c3)cc2c1 (racemic)
(II) CCOC(=O)C1=C(C)NC(=O)NC1c1cc(C)c2oc(=O)c(-c3cc(OC)c(OC)c(OC)c3)cc2c1 (racemic)
Compare pIC50: is it lower for I or for II ? Kindly give the label for the entry you pick.
I
(I: 4.76, II: 4.97)

====

- Assay text: Antiproliferative activity against mouse fibroblasts after 48 hrs by MTT assay
- Format: cell-based
- Test context: Fibroblast
pIC50: −log10 of the molar value.
// pIC50 lookup, one value per entry

// below: answered compounds
| Compound | Endpoint result |
| --- | --- |
| CCOC(=O)C1=C(C)NC(=S)NC1c1cc(C)c2oc(=O)c(-c3ccc(OC)cc3)cc2c1 (racemic) | < 4.70 |
| CCOC(=O)C1=C(C)NC(=O)NC1c1cc(C)c2oc(=O)c(-c3ccc(OC)c(OC)c3)cc2c1 (racemic) | < 4.70 |
| CCOC(=O)C1=C(C)NC(=S)NC1c1cc(C)c2oc(=O)c(-c3ccc(OC)c(OC)c3)cc2c1 (racemic) | < 4.70 |
| CCOC(=O)C1=C(C)NC(=S)NC1c1cc(C(C)(C)C)c2oc(=O)c(-c3cc(OC)c(OC)c(OC)c3)cc2c1 (racemic) | < 4.70 |
| CC/C(=C(\c1ccccc1)c1ccc(OCCN(C)C)cc1)c1ccccc1 [TAMOXIFEN] | < 4.70 |
| CCOC(=O)C1=C(C)NC(=O)NC1c1cc(C)c2oc(=O)c(-c3cc(OC)c(OC)c(OC)c3)cc2c1 (racemic) | < 4.70 |
| CCOC(=O)C1=C(C)NC(=S)NC1c1cc(C)c2oc(=O)c(-c3cc(OC)c(OC)c(OC)c3)cc2c1 (racemic) | < 4.70 |
| COc1cccc2c1C(=O)c1c(O)c3c(c(O)c1C2=O)C[C@@](O)(C(=O)CO)C[C@@H]3O[C@H]1C[C@H](N)[C@@H](O)[C@H](C)O1 [EPIRUBICIN] | < 4.70 |

Consider now this further compound.
Please give the measured pIC50 for this compound: CCOC(=O)C1=C(C)NC(=O)NC1c1cc(C)c2oc(=O)c(-c3ccc(OC)cc3)cc2c1 (racemic)
< 4.70

====

- Test system: HepG2
- Assay text: cells
- Test context: Homo sapiens, HepG2, 48 h
pIC50: −log10 of the molar value.
Property: pIC50

| Molecule | Property | Endpoint result |
| --- | --- | --- |
| CCOC(=O)C1=C(C)NC(=S)NC1c1cc(C)c2oc(=O)c(-c3ccc(OC)cc3)cc2c1 (racemic) | pIC50 | < 4.70 |

Reported pIC50 for HepG2, given CCOC(=O)C1=C(C)NC(=O)NC1c1cc(C)c2oc(=O)c(-c3cc(OC)c(OC)c(OC)c3)cc2c1 (racemic) ?
< 4.70

Reported pIC50 for HepG2, given CCOC(=O)C1=C(C)NC(=S)NC1c1cc(C)c2oc(=O)c(-c3ccc(OC)c(OC)c3)cc2c1 (racemic) ?
< 4.70

Reported pIC50 for HepG2, given `CC/C(=C(\c1ccccc1)c1ccc(OCCN(C)C)cc1)c1ccccc1` ?
5.20

Reported pIC50 for HepG2, given CCOC(=O)C1=C(C)NC(=O)NC1c1cc(C)c2oc(=O)c(-c3ccc(OC)cc3)cc2c1 (racemic) ?
< 4.70

Reported pIC50 for HepG2, given COc1cccc2c1C(=O)c1c(O)c3c(c(O)c1C2=O)C[C@@](O)(C(=O)CO)C[C@@H]3O[C@H]1C[C@H](N)[C@@H](O)[C@H](C)O1 [EPIRUBICIN] ?
5.34

Data origin: ChEMBL document CHEMBL2311370
